The reported numbers originate from patent US5437864A.

TARGET SYSTEM: factor VII/VIIa (Homo sapiens)
Construct: from tissue
Sequence (P08709 61-466): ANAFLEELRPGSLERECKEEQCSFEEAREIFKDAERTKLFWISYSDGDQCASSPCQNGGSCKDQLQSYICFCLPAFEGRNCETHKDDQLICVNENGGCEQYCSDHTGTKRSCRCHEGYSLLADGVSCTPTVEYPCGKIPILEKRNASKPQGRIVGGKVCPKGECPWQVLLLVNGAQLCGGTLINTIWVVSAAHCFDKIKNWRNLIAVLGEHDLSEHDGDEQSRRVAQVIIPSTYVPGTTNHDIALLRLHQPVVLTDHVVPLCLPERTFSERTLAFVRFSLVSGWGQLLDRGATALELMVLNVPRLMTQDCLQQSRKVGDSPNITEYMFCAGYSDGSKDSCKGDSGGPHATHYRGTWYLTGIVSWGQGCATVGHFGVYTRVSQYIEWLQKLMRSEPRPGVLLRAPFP
ASSAY EXPLANATION: Inhibition of huTF-initiated coagulation by polypeptide analogs of huTFh
Assay type: biochemical
CONDITION INFO: non-phospholipidated peptides; 10 μM; read-out: Inhibition (Percent Inhibition of huTF-initiated coagulation)
ASSAY METRIC: inhibition at 10 µM (%)

SUBSTANCE: H-DSPVECMGQEKGEFREIFYIIGA-OH [p204-226]
inhibition at 10 µM, %: 20
--
SUBSTANCE: H-LARVFSYPAGNVESTGSAGEPLYENSPEFTPYLC-OH [p72-104]
inhibition at 10 µM, %: 25
--
SUBSTANCE: H-SGTTNTVAAYNLTWKSTNFKTILEWEPKPV-OH [p1-30]
inhibition at 10 µM, %: 25
--
SUBSTANCE: H-YENSPEFTPYLETNLGQPTIQSFEQVGTKV-OH [p94-123]
inhibition at 10 µM, %: 20
--
SUBSTANCE: H-ECDLTDEIVKDVKQTY-OH [p56-71, H--ECDLTDEIVKDVKQTY--OH]
inhibition at 10 µM, %: 25

[1] H-QAVIPSRTVNRKSTDSPVEC-OH [p190-209]
[2] H-TKVNVTVEDERTLVRRNNTFLSLRDVFGKDLIYTL-OH [p121-155]
Prompt: Kindly identify which of 1 and 2 has the larger recorded inhibition at 10 µM value. I would appreciate it if you answered with the label of your choice.
Completion: 1
